compounds and their reported viability, T/C
test system: 439559-082-T-J2-PDC spheroid viability; assay: Anticancer human tumor 439559-082-T-J2-PDC patient-derived colon adenocarcinoma cell line growth inhibition [POLQ]; details: second compound 0.0316 µM; first compound 1 µM; stronger effect = lower value; spheroids with HUVEC and MSC
API: value field is a number in %; no unit string.

Known results for compounds:
* COc1cc(C2c3cc4c(cc3C(OC3OC5COC(C)OC5C(O)C3O)C3COC(=O)C23)OCO4)cc(OC)c1O (stereo not given) + Cc1cccc(N(C)C(=O)C2C(O)CCN2c2nc(C)cc(C(F)(F)F)c2C#N)c1 | 95.3
* COc1cc(C2c3cc4c(cc3C(OC3OC5COC(C)OC5C(O)C3O)C3COC(=O)C23)OCO4)cc(OC)c1O (stereo not given) + Nc1ccc(C#CCN(C(=O)Cc2ncc(C(F)(F)F)cc2C(F)(F)F)c2ccc(F)cc2)nn1 | 79.4
* O=C(c1cc(Cc2n[nH]c(=O)c3ccccc23)ccc1F)N1CCN(C(=O)C2CC2)CC1 + Cc1cccc(N(C)C(=O)C2C(O)CCN2c2nc(C)cc(C(F)(F)F)c2C#N)c1 | 107
* C=CC(=O)N1CCN(c2nc(=O)n(-c3c(C)ccnc3C(C)C)c3nc(-c4c(O)cccc4F)c(F)cc23)C(C)C1 (stereo not given) + COC1C(OC(N)=O)C(O)C(Oc2ccc3c(O)c(NC(=O)c4ccc(O)c(CC=C(C)C)c4)c(=O)oc3c2C)OC1(C)C | 101

Lookup: Query: viability, T/C; subject: COc1cc2cc(C(=O)CCC(=O)O)sc2cc1OC + Nc1ccc(C#CCN(C(=O)Cc2ncc(C(F)(F)F)cc2C(F)(F)F)c2ccc(F)cc2)nn1
Found: 95.8

---

system: 439559-082-T-J2-PDC spheroid viability; experiment: Anticancer human tumor 439559-082-T-J2-PDC cell line growth inhibition [POLQ]; settings: second compound 1 µM; first compound 3.16 µM; stronger effect = lower value; spheroids with HUVEC and MSC;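 further: spheroids exposed to compounds for seven days before readout; 100% = DMSO vehicle control viability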
molecules and their reported viability, T/C
Enter the number, and then the unit.

Lookup: Query: viability, T/C; subject: CC1COCCN1c1cc(C2(O)CC3CCC(C2)O3)c2cnn(-c3ccn[nH]3)c2n1 (stereo not given) + Nc1ccc(C#CCN(C(=O)Cc2ncc(C(F)(F)F)cc2C(F)(F)F)c2ccc(F)cc2)nn1
Found: 60.6%

Lookup: Ok, now COc1cc(C2c3cc4c(cc3C(OC3OC5COC(C)OC5C(O)C3O)C3COC(=O)C23)OCO4)cc(OC)c1O (stereo not given) + Nc1ccc(C#CCN(C(=O)Cc2ncc(C(F)(F)F)cc2C(F)(F)F)c2ccc(F)cc2)nn1
Found: 88.7%

Lookup: Ok, now O=c1[nH]cc(F)c(=O)[nH]1 + Cc1cccc(N(C)C(=O)C2C(O)CCN2c2nc(C)cc(C(F)(F)F)c2C#N)c1
Found: 76.7%

Lookup: Ok, now Nc1ccn(C2OC(CO)C(O)C2(F)F)c(=O)n1 (stereo not given) + Cc1cccc(N(C)C(=O)C2C(O)CCN2c2nc(C)cc(C(F)(F)F)c2C#N)c1
Found: 37.7%

Lookup: Ok, now C#Cc1c(F)ccc2cc(O)cc(-c3ncc4c(N5CC6CCC(C5)N6)nc(OCC56CCCN5CC(F)C6)nc4c3F)c12 (stereo not given) + COC1C(OC(N)=O)C(O)C(Oc2ccc3c(O)c(NC(=O)c4ccc(O)c(CC=C(C)C)c4)c(=O)oc3c2C)OC1(C)C
Found: 57.4%

Lookup: Ok, now O=C(Nc1ccc(O)c(NS(=O)(=O)c2ccc(F)cc2)c1)c1ccc(-c2ccccc2)cc1 + COC1C(OC(N)=O)C(O)C(Oc2ccc3c(O)c(NC(=O)c4ccc(O)c(CC=C(C)C)c4)c(=O)oc3c2C)OC1(C)C
Found: 104%

Lookup: Ok, now COc1cccc2c1C(=O)c1c(O)c3c(c(O)c1C2=O)CC(O)(C(=O)CO)CC3OC1CC(N)C(O)C(C)O1 (stereo not given) + COC1C(OC(N)=O)C(O)C(Oc2ccc3c(O)c(NC(=O)c4ccc(O)c(CC=C(C)C)c4)c(=O)oc3c2C)OC1(C)C
Found: 56.1%

Lookup: Ok, now CC(C)n1c(=O)n(C)c2cnc3cc(F)c(-c4ccc(OCCCN5CCCCC5)nc4)cc3c21 + COC1C(OC(N)=O)C(O)C(Oc2ccc3c(O)c(NC(=O)c4ccc(O)c(CC=C(C)C)c4)c(=O)oc3c2C)OC1(C)C
Found: 110%

Lookup: Ok, now CC1COCCN1c1cc(C2(O)CC3CCC(C2)O3)c2cnn(-c3ccn[nH]3)c2n1 (stereo not given) + COC1C(OC(N)=O)C(O)C(Oc2ccc3c(O)c(NC(=O)c4ccc(O)c(CC=C(C)C)c4)c(=O)oc3c2C)OC1(C)C
Found: 48.2%

Lookup: Ok, now CC1COCCN1c1cc(-c2ccnn2C)c2ccnc(-c3ccn[nH]3)c2n1 (stereo not given) + Nc1ccc(C#CCN(C(=O)Cc2ncc(C(F)(F)F)cc2C(F)(F)F)c2ccc(F)cc2)nn1
Found: 56.8%
